Origin of the recorded values: patent US20160311887A1

Recorded second-order rate constant of inhibition by entry
target: T1, fXa (UniProt P00742 41-179; P00742 235-488); assay: pseudo-first-order inhibition kinetics, residual chromogenic activity (S2222)
T1 construct: also called factor Xa
T1 sequence (P00742 41-179 limits assumed, form in doubt, chain 1 of 2): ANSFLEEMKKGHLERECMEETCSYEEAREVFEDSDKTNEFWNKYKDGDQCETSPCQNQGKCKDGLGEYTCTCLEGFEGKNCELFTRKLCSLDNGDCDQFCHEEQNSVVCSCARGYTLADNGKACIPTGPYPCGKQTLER
T1 sequence (P00742 235-488 limits assumed, form in doubt, chain 2 of 2): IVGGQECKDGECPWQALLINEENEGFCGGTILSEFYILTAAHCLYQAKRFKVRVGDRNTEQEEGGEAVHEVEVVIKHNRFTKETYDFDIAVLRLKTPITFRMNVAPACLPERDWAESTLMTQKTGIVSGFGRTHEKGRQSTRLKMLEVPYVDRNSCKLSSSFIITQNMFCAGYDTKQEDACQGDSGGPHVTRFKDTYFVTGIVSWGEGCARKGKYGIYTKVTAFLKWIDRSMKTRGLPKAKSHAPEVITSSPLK
Numeric only. Scale: M⁻¹ s⁻¹

[
  {
    "binder": "FL α1AT Pitts C232S P2KP1′K (other, E. coli, SUMO tag removed; also called P2KP1′K α1AT; P2KP1′K mutant of α1AT Pitts) SDPQGDAAQKTDTSHHDQDHPTFNKITPNLAEFAFSLYRQLAHQSNSTNIFFSPVSIATAFAMLSLGTKADTHDEILEGLNFNLTEIPEAQIHEGFQELLRTLNQPDSQLQLTTGNGLFLSEGLKLVDKFLEDVKKLYHSEAFTVNFGDTEEAKKQINDYVEKGTQGKIVDLVKELDRDTVFALVNYIFFKGKWERPFEVKDTEEEDFHVDQVTTVKVPMMKRLGMFNIQHSKKLSSWVLLMKYLGNATAIFFLPDEGKLQHLENELTHDIITKFLENEDRRSASLHLPKLSITGTYDLKSVLGQLGITKVFSNGADLSGVTEEAPLKLSKAVHKAVLTIDEKGTEAAGAMFLEAIKRKIPPEVKFNKPFVFLMIEQNTKSPLFMGKVVNPTQK",
    "second-order rate constant of inhibition (M⁻¹ s⁻¹)": 120
  },
  {
    "binder": "FL α1AT Pitts C232S P1′K (other, E. coli, SUMO tag removed; also called P1′K α1AT Pitts; P1′.F9) SDPQGDAAQKTDTSHHDQDHPTFNKITPNLAEFAFSLYRQLAHQSNSTNIFFSPVSIATAFAMLSLGTKADTHDEILEGLNFNLTEIPEAQIHEGFQELLRTLNQPDSQLQLTTGNGLFLSEGLKLVDKFLEDVKKLYHSEAFTVNFGDTEEAKKQINDYVEKGTQGKIVDLVKELDRDTVFALVNYIFFKGKWERPFEVKDTEEEDFHVDQVTTVKVPMMKRLGMFNIQHSKKLSSWVLLMKYLGNATAIFFLPDEGKLQHLENELTHDIITKFLENEDRRSASLHLPKLSITGTYDLKSVLGQLGITKVFSNGADLSGVTEEAPLKLSKAVHKAVLTIDEKGTEAAGAMFLEAIPRKIPPEVKFNKPFVFLMIEQNTKSPLFMGKVVNPTQK",
    "second-order rate constant of inhibition (M⁻¹ s⁻¹)": 4890
  }
]

Turning now to a further record.
stdin: Returns the measured second-order rate constant of inhibition for the input binder. Input: FL α1AT Pitts C232S (other, Serpin; E. coli, SUMO tag removed; also called α1-antitrypsin Pittsburgh) SDPQGDAAQKTDTSHHDQDHPTFNKITPNLAEFAFSLYRQLAHQSNSTNIFFSPVSIATAFAMLSLGTKADTHDEILEGLNFNLTEIPEAQIHEGFQELLRTLNQPDSQLQLTTGNGLFLSEGLKLVDKFLEDVKKLYHSEAFTVNFGDTEEAKKQINDYVEKGTQGKIVDLVKELDRDTVFALVNYIFFKGKWERPFEVKDTEEEDFHVDQVTTVKVPMMKRLGMFNIQHSKKLSSWVLLMKYLGNATAIFFLPDEGKLQHLENELTHDIITKFLENEDRRSASLHLPKLSITGTYDLKSVLGQLGITKVFSNGADLSGVTEEAPLKLSKAVHKAVLTIDEKGTEAAGAMFLEAIPRSIPPEVKFNKPFVFLMIEQNTKSPLFMGKVVNPTQK
stdout: 41300
